The following compounds are listed with their measured IC50 values.
- Tested on: TC71 cells
- TEST: Cellular proliferation (WST) assay, TC71
- Format: cell-based
- SETUP_CONDITIONS: TC-71, 72 h; TC71, ESFT (Type 1); read-out: IC50 at 3 days (+/− SEM)
- Description: TC32, TC71, RDES, MMH-ES-1, STA-ET 7.2, A4573, and PC3 cells were grown in RPMI with 10% FBS and 1% HEPES. SKES cells were grown in McCoy's 5A medium with 15% FBS. MCF7, MDA-MB-231, PANC1, and ASPC1 cells were grown in colorless DMEM with 10% FBS. […] After three days, viable cells were quantified using WST (Roche) according to the manufacturer's protocol. IC50 values were calculated by sigmoidal dose-response curve fit using Prism Graphpad 4.0.
Response body: numeric value in nM, unit text excluded.

Some solved cases for reference:
COc1ccc(C(=O)C[C@@]2(O)C(=O)Nc3c(Cl)ccc(Cl)c32)cc1 [(S)-YK-4-279]	160
COc1ccc(C(=O)C[C@]2(O)C(=O)Nc3c(Cl)ccc(Cl)c32)cc1 [(R)-YK-4-279]	20900

### Prompt Quick one: IC50 for COc1ccc(C(=O)CC2(O)C(=O)Nc3c(Cl)ccc(Cl)c32)cc1 (stereo not drawn) [YK-4-279] ?
### Response 1830

----------
- Tested on: ASPC1 cells
- TEST: Cellular proliferation (WST) assay, ASPC1
- Format: cell-based
- SETUP_CONDITIONS: Homo sapiens, 72 h; ASPC1, pancreatic; read-out: IC50 at 3 days (+/− SEM)
OUTCOME_MEASURE: IC50 (µM)
Response body: numeric value in µM, unit text excluded.

COc1ccc(C(=O)CC2(O)C(=O)Nc3c(Cl)ccc(Cl)c32)cc1 (stereo not drawn) [YK-4-279]	14.3

### Prompt Quick one: IC50 for COc1ccc(C(=O)C[C@@]2(O)C(=O)Nc3c(Cl)ccc(Cl)c32)cc1 [(S)-YK-4-279] ?
### Response 8.16

----------
- System: non-ESFT cell lines (PC3, MCF7, MDA-MB-231, PANC1, ASPC1)
- TEST: Cellular proliferation (WST) assay, panel of five non-ESFT cell lines
- Format: cell-based
- SETUP_CONDITIONS: 72 h, read-out: Mean IC50 at 3 days (+/− SEM)
OUTCOME_MEASURE: pIC50
A value of pIC50 is the negative decimal logarithm of a concentration given in moles per litre.

### Prompt Quick one: pIC50 for COc1ccc(C(=O)CC2(O)C(=O)Nc3c(Cl)ccc(Cl)c32)cc1 (stereo not shown) ?
### Response 5.05

----------
- TARGET_SYSTEM: EWS-FLI1/RHA interaction in TC32 cells (Homo sapiens, UniProt Q01543+Q01844)
- Construct: FLI1 C-terminal portion (fusion partner, Q01543); endogenous in cells
- Sequence (Q01844+Q01543 fused): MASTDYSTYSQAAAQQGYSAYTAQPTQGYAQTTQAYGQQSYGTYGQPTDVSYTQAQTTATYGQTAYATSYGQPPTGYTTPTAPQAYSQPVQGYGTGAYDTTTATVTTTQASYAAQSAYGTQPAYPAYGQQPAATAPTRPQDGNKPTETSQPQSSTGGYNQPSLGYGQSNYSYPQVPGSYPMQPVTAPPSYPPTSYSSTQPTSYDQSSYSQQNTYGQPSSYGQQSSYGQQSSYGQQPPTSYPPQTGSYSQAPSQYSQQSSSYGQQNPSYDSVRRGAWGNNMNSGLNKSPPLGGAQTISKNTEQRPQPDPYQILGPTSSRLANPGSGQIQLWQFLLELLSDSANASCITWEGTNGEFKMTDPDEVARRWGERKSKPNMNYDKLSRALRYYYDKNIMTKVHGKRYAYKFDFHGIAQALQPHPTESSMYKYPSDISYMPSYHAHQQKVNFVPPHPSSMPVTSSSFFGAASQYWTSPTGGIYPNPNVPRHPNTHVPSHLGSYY
- TEST: Co-immunoprecipitation of EWS-FLI1 and RHA from treated TC32 cells, western blot densitometry
- SETUP_CONDITIONS: 0.3 to 10μM, 15 hours, read-out: IC50, densitometry of RHA relative to FLI1
The following molecules are listed with their measured pIC50 values.
A value of pIC50 is the negative decimal logarithm of a concentration given in moles per litre.

COc1ccc(C(=O)C[C@@]2(O)C(=O)Nc3c(Cl)ccc(Cl)c32)cc1 [(S)-YK-4-279]	5.74

API: the following record is the query input.
### Prompt Request - read-out pIC50 | tested on EWS-FLI1/RHA interaction in TC32 cells (Homo sapiens, UniProt Q01543+Q01844) | molecule COc1ccc(C(=O)CC2(O)C(=O)Nc3c(Cl)ccc(Cl)c32)cc1 (centres unmarked) [YK-4-279]
### Response 5.31

Values compiled from paper PMC3326647.
